# target_system: biotinylated recombinant hSIRPα (extracellular portion) (human, UniProt P78324 31-373, biotin (Sulfo-NHS-LC-LC-Biotin))
# Sequence (P78324 31-373): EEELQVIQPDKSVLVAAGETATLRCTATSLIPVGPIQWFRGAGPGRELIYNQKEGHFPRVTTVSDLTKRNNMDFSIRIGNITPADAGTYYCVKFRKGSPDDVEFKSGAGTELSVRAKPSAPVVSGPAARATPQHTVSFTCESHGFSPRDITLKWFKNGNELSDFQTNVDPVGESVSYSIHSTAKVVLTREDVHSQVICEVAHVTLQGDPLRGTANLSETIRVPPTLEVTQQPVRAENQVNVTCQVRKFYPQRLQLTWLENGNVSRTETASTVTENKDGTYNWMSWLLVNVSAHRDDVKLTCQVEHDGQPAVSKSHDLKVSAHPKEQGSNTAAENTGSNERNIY
# measurement_description: BLI
Listed next: entries and their corresponding Kd.
Give the quantity in nM, number only.

// returns reported Kd for input hSIRPα Nb S43 (VHH) VHH: HVQLVESGGGLVQPGGSARLSCAASGFDLDYFAIGWFRQAPGKEREGVSCISTRSETTNYVDSVKGRFTISRDNAISTVYLQMNNLKPEDTAVYYCAADWADWTMTGCQMTWDDYNYWGQGAQVTVSS
99
